// provenance: the RNAGym collection of RNA variant scans (doi:10.7554/elife.80360)

B1: HDV Ribozyme (parent)
chain: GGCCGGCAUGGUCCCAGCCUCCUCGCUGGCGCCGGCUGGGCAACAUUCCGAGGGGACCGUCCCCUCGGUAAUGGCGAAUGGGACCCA

- Variants of: B1
- Assay Info: self-cleavage, relative activity (ratio to wild type); higher = more cleavage; co-transcriptional
Measurement Kind: self-cleavage

In one line, give reported self-cleavage of the entry G11U G82C . 0.117

In one line, give reported self-cleavage of the entry G17C C58U . 0.302

In one line, give reported self-cleavage of the entry C66A G74C . 0.293

In one line, give reported self-cleavage of the entry U20C C64A . 0.145

In one line, give reported self-cleavage of the entry C15A C18G . 0.111

In one line, give reported self-cleavage of the entry C48A G81A . 0.448

In one line, give reported self-cleavage of the entry A8G C22A . 0.101

In one line, give reported self-cleavage of the entry G34C U60C . 0.244

In one line, give reported self-cleavage of the entry C4A G39A . 0.119

In one line, give reported self-cleavage of the entry C21U C22A . 0.0482

In one line, give reported self-cleavage of the entry G28U C44A . 0

In one line, give reported self-cleavage of the entry G73U G74A . 0.172

In one line, give reported self-cleavage of the entry A42U G80U . 0.138

In one line, give reported self-cleavage of the entry C62A A77G . 1.17

In one line, give reported self-cleavage of the entry C21G G31A . 0.18

In one line, give reported self-cleavage of the entry G40C C85A . 0.128

In one line, give reported self-cleavage of the entry G53A A83U . 0.521

In one line, give reported self-cleavage of the entry C7U C15A . 0.256

In one line, give reported self-cleavage of the entry U20C U23G . 0

In one line, give reported self-cleavage of the entry G50A U65G . 0.95

In one line, give reported self-cleavage of the entry C4U C24G . 0.0678

In one line, give reported self-cleavage of the entry G17U C44U . 0.146
